protocol_text: Surface tension measurement
Assay type: physicochemical
Parameters: unit not given here
details: at 1.5 mg/L
property_name: Surface Tension

- molecule: "CCCCCC(=O)OC1C(O)C(O)C(O)C(OC(=O)CCCCC)C1OC(C)=O (centres unmarked)"
  property_name: "Surface Tension"
  reported: 28.71
- molecule: "CCCCCC(=O)OC1C(O)C(O)C(O)C(O)C1OC(=O)CCCCC (single isomer, unassigned) [Compound A57-4-gly-5]"
  property_name: "Surface Tension"
  reported: 22.44
- molecule: "CCCCCC(=O)OC1C(O)C(O)C(O)C(O)C1OC(=O)CCCCC (single isomer, unassigned) [Compound A57-4-gly-2]"
  property_name: "Surface Tension"
  reported: 22.40
- molecule: "CCCCCC(=O)OC1C(O)C(O)C(O)C(OC(C)=O)C1OC(=O)CCCCC (centres unmarked)"
  property_name: "Surface Tension"
  reported: 22.90
- molecule: "CCCCCC(=O)OC1C(O)C(O)C(O)C(OC(=O)CCCCC)C1OC(=O)CCCCC (centres unmarked)"
  property_name: "Surface Tension"
  reported: 25.28
